# testedOn: 11-beta-hydroxysteroid dehydrogenase type 2 (Homo sapiens, UniProt P80365)
# Sequence (P80365 whole entry): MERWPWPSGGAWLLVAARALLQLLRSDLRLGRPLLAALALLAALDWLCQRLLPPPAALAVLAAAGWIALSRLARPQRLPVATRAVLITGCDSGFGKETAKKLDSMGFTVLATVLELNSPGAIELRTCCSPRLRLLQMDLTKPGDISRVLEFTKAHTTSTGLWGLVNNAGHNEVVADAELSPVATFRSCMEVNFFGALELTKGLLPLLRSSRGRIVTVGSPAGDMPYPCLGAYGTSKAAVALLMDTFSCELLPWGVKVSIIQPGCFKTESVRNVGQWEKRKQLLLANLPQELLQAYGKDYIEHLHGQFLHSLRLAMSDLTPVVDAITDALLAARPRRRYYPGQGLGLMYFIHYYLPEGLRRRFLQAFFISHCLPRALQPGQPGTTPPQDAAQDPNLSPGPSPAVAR
# procedureDetails: Inhibition of full-length human 11beta-HSD2 expressed in HEK293 microsomal fraction using [3H]cortisone as substrate after 2 hr by scintillation proximity assay

{"chemicalSmiles": "CCC(=O)CC[C@]1(C)C(=O)[C@H](O)C[C@@H]2[C@@]3(C)CC[C@H](OC(C)=O)C(C)(C)[C@@H]3CC[C@]21C", "inequalitySign": "=", "IC50 / µM": 6.26}
{"chemicalSmiles": "CC1(C)[C@@H](O)CC[C@]2(C)[C@H]3CC(=O)C4=CCC[C@@]4(C)[C@]3(C)CC[C@@H]12", "inequalitySign": "=", "IC50 / µM": 9.58}
{"chemicalSmiles": "CC(=O)O[C@H]1CC[C@]2(C)[C@H]3C[C@@H](O)[C@@H]4[C@@H](O)CC[C@@]4(C)[C@]3(C)CC[C@H]2C1(C)C", "inequalitySign": ">", "IC50 / µM": 10}

---

Property: pIC50; scope: individual molecules
# testedOn: 11-beta-hydroxysteroid dehydrogenase type 2 (Mus musculus, UniProt P51661)
# Sequence (P51661 whole entry): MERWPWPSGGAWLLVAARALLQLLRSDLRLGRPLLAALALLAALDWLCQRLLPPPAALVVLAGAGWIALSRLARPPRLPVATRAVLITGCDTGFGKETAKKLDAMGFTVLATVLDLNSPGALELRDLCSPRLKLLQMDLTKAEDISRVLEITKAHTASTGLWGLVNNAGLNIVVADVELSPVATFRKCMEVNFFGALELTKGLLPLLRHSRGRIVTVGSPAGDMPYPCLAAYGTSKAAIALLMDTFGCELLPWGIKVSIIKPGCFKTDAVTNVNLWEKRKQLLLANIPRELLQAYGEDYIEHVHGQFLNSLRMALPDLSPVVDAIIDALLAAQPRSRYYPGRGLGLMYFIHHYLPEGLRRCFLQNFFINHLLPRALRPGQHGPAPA
pIC50: −log10 of the molar value.

{"chemicalSmiles": "CC1(C)[C@@H](O)CC[C@]2(C)[C@H]3C[C@@H](O)[C@@H]4CCC[C@@]4(C)[C@]3(C)CC[C@@H]12", "pIC50": "< 4.00"}
{"chemicalSmiles": "CC(=O)[C@]1(O)CC[C@]2(C)[C@@H]1[C@H](O)C[C@@H]1[C@@]3(C)CC[C@H](O)C(C)(C)[C@@H]3CC[C@]12C", "pIC50": "< 5.00"}
{"chemicalSmiles": "CC(=O)O[C@H]1CC[C@]2(C)[C@H]3C[C@@H](O)[C@@H]4[C@@H](C(C)=O)CC[C@@]4(C)[C@]3(C)CC[C@H]2C1(C)C", "pIC50": "< 5.00"}

---

# testedOn: 11-beta-hydroxysteroid dehydrogenase 1 (Mus musculus, UniProt P50172)
# procedureDetails: Inhibition of mouse N-terminal His-tagged 11beta-HSD1 expressed in Escherichia coli using cortisol as substrate by fluorescence-based assay

{"compound": "CC1=CC[C@@]2(CC1O)[C@@H](C(=O)O)CC[C@H]2C(C)C (stereo partly specified)", "testedOn": "11-beta-hydroxysteroid dehydrogenase 1 (Mus musculus, UniProt P50172)", "IC50 / nM": 460}

---

# testedOn: 11-beta-hydroxysteroid dehydrogenase 1 (Mus musculus) (UniProt P50172)
# Sequence (P50172 whole entry, looked up): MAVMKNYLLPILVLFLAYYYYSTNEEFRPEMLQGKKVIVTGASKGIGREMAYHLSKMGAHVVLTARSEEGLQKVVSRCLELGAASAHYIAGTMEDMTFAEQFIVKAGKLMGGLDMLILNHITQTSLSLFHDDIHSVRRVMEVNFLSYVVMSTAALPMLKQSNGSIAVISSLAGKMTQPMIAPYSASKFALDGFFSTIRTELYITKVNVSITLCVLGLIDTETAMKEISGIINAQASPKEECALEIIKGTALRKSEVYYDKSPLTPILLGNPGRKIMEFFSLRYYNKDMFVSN
# testParameters: at 1 µM
# Description: Inhibition of full-length mouse 11beta-HSD1 expressed in HEK293 microsomal fraction at 1 uM using [3H]cortisone as substrate after 1 hr by scintillation proximity assay relative to control
Property: inhibition; scope: individual molecules
readout: inhibition (%)

{"chemicalSmiles": "CC(=O)[C@H]1CC[C@]2(C)[C@@H]1[C@H](O)C[C@@H]1[C@@]3(C)CC[C@H](O)C(C)(C)[C@@H]3CC[C@]12C", "testedOn": "11-beta-hydroxysteroid dehydrogenase 1 (Mus musculus) (UniProt P50172)", "readout": "inhibition", "val": 27.1}
{"chemicalSmiles": "CC(=O)O[C@H]1CC[C@]2(C)[C@H]3C[C@@H](OC(C)=O)[C@@H]4[C@@H](O)CC[C@@]4(C)[C@]3(C)CC[C@H]2C1(C)C", "testedOn": "11-beta-hydroxysteroid dehydrogenase 1 (Mus musculus) (UniProt P50172)", "readout": "inhibition", "val": 13.3}
{"chemicalSmiles": "CC(=O)O[C@H]1CC[C@]2(C)[C@H]3C[C@@H](OC(C)=O)[C@@H]4[C@@H](Cl)CC[C@@]4(C)[C@]3(C)CC[C@H]2C1(C)C", "testedOn": "11-beta-hydroxysteroid dehydrogenase 1 (Mus musculus) (UniProt P50172)", "readout": "inhibition", "val": 8.02}
{"chemicalSmiles": "CC(=O)O[C@H]1CC[C@]2(C)[C@H]3C[C@@H](O)[C@@H]4[C@@H](C(C)=O)CC[C@@]4(C)[C@]3(C)CC[C@H]2C1(C)C", "testedOn": "11-beta-hydroxysteroid dehydrogenase 1 (Mus musculus) (UniProt P50172)", "readout": "inhibition", "val": 60.9}
{"chemicalSmiles": "COCO[C@H]1CC[C@]2(C)[C@H]3C[C@@H](OCOC)[C@@H]4[C@@H](C(C)=O)CC[C@@]4(C)[C@]3(C)CC[C@H]2C1(C)C", "testedOn": "11-beta-hydroxysteroid dehydrogenase 1 (Mus musculus) (UniProt P50172)", "readout": "inhibition", "val": 11.5}
{"chemicalSmiles": "CC1(C)[C@@H](O)CC[C@]2(C)[C@H]3C[C@@H](O)C4=CCC[C@@]4(C)[C@]3(C)CC[C@@H]12", "testedOn": "11-beta-hydroxysteroid dehydrogenase 1 (Mus musculus) (UniProt P50172)", "readout": "inhibition", "val": 33.2}
{"chemicalSmiles": "CC1(C)[C@@H](O)CC[C@]2(C)[C@H]3C[C@@H](O)[C@]45O[C@H]4CC[C@@]5(C)[C@]3(C)CC[C@@H]12", "testedOn": "11-beta-hydroxysteroid dehydrogenase 1 (Mus musculus) (UniProt P50172)", "readout": "inhibition", "val": 16.9}
{"chemicalSmiles": "CC(C)(O)[C@@H]1CC[C@]2(C)[C@H](C[C@@H](O)[C@@H]3[C@@H](O)CC[C@]32C)[C@@]1(C)CCCO", "testedOn": "11-beta-hydroxysteroid dehydrogenase 1 (Mus musculus) (UniProt P50172)", "readout": "inhibition", "val": 16.1}
{"chemicalSmiles": "CC1(C)[C@@H](O)CC[C@]2(C)[C@H]3C[C@@H](O)[C@@H]4[C@@H](C(=O)O)CC[C@@]4(C)[C@]3(C)CC[C@@H]12", "testedOn": "11-beta-hydroxysteroid dehydrogenase 1 (Mus musculus) (UniProt P50172)", "readout": "inhibition", "val": 15.1}
{"chemicalSmiles": "CC(=O)O[C@H]1CC[C@]2(C)[C@H]3C[C@@H](OC(C)=O)[C@@H]4[C@@H](C(C)=O)CC[C@@]4(C)[C@]3(C)CC[C@H]2C1(C)C", "testedOn": "11-beta-hydroxysteroid dehydrogenase 1 (Mus musculus) (UniProt P50172)", "readout": "inhibition", "val": 40.9}
{"chemicalSmiles": "CC1(C)[C@@H](O)CC[C@]2(C)[C@H]3C[C@@H](O)[C@@H]4[C@@H](C(=O)CO)CC[C@@]4(C)[C@]3(C)CC[C@@H]12", "testedOn": "11-beta-hydroxysteroid dehydrogenase 1 (Mus musculus) (UniProt P50172)", "readout": "inhibition", "val": 32.2}
{"chemicalSmiles": "CC(=O)O[C@H]1CC[C@]2(C)[C@H]3C[C@@H](OC(C)=O)[C@@H]4[C@@H](C(=O)CO)CC[C@@]4(C)[C@]3(C)CC[C@H]2C1(C)C", "testedOn": "11-beta-hydroxysteroid dehydrogenase 1 (Mus musculus) (UniProt P50172)", "readout": "inhibition", "val": 20.1}
